# Read-out: Pselectin, SELP (gene 6403)
# Assay Summary: BSK_4H_Pselectin: BioMAP Diversity Plus: 4H Assay for Pselectin Biomarker Activity (AID 2283026)
# Conditions: primary human endothelial cells (HUVEC); actives raise or lower the signal
Calls of active or inactive are those of the source. How the source made its calls: active means hit-call score of the fitted dose curve at least 0.9, where 1 is the maximum; inactive means score below 0.9.
Labels: active, inactive

[
  {
    "Molecule": "c1ccc2c(c1)Cc1ccccc1-2",
    "Category Label": "inactive"
  },
  {
    "Molecule": "Cc1cc(CCN2CCN(c3nsc4ccccc34)CC2)cc2c1NC(=O)CC2(C)C",
    "Category Label": "active"
  },
  {
    "Molecule": "CC[C@H](C)[C@@H](C(=O)O)n1sc2ccccc2c1=O",
    "Category Label": "inactive"
  },
  {
    "Molecule": "COc1ccc([N+](=O)[O-])cc1N",
    "Category Label": "inactive"
  },
  {
    "Molecule": "CC(C)(C)CC(C)(C)c1ccc(O)c(-n2nc3ccccc3n2)c1",
    "Category Label": "inactive"
  },
  {
    "Molecule": "O=c1c(-c2ccc(O)cc2)coc2cc(O)ccc12",
    "Category Label": "active"
  },
  {
    "Molecule": "NC(=O)N(O)[C@@H]1C=C[C@H](Oc2cccc(Oc3ccc(F)cc3)c2)C1",
    "Category Label": "inactive"
  },
  {
    "Molecule": "C#C[C@]1(O)CC[C@H]2[C@@H]3CCC4=CC(=O)CC[C@@H]4[C@H]3CC[C@@]21C",
    "Category Label": "inactive"
  },
  {
    "Molecule": "c1ccc2cc3c(ccc4ccccc43)cc2c1",
    "Category Label": "inactive"
  },
  {
    "Molecule": "CCN(CC)CCNc1ccc(CNC=O)c2sc3ccc(OC)cc3c(=O)c12",
    "Category Label": "active"
  },
  {
    "Molecule": "C[C@@H]1C[C@H]2[C@@H]3CCC4=CC(=O)C=C[C@]4(C)[C@@]3(F)[C@@H](O)C[C@]2(C)[C@@]1(O)C(=O)COP(=O)(O)O",
    "Category Label": "inactive"
  },
  {
    "Molecule": "C=C(C)C(=O)OCCC(F)(F)C(F)(F)C(F)(F)C(F)(F)C(F)(F)C(F)(F)F",
    "Category Label": "inactive"
  },
  {
    "Molecule": "CCCOc1sc(C(=O)N2CCC(c3cc(CN)ccc3F)CC2)c(C)c1Br",
    "Category Label": "active"
  },
  {
    "Molecule": "Nc1cccc2c(N)cccc12",
    "Category Label": "inactive"
  },
  {
    "Molecule": "CCCCCCCCCCCCCCCS(=O)(=O)Oc1ccccc1",
    "Category Label": "inactive"
  },
  {
    "Molecule": "CCCCCCCCCCCCCC[N+](C)(C)C",
    "Category Label": "active"
  },
  {
    "Molecule": "NCC(F)(F)C(F)(F)C(F)(F)C(F)(F)C(F)(F)C(F)(F)C(F)(F)F",
    "Category Label": "inactive"
  },
  {
    "Molecule": "CCCCC(CC)COC(=O)CCCCC(=O)OCC(CC)CCCC (stereo not drawn)",
    "Category Label": "inactive"
  },
  {
    "Molecule": "CCCCOCCO",
    "Category Label": "inactive"
  },
  {
    "Molecule": "ClC1=C(Cl)C(Cl)(Cl)C(Cl)=C1Cl",
    "Category Label": "active"
  },
  {
    "Molecule": "CCCOC(=O)c1ccc(O)cc1",
    "Category Label": "inactive"
  },
  {
    "Molecule": "CCOC(=O)CC(O)(CC(=O)OCC)C(=O)OCC",
    "Category Label": "inactive"
  },
  {
    "Molecule": "CN1CCC[C@H]1c1cccnc1",
    "Category Label": "inactive"
  }
]

====

# Measurement Target: Paired box protein Pax-6 (Homo sapiens)
# Assay Summary: ATG_Pax6_CIS: Attagene CIS-FACTORIAL HepG2 Assay for human Paired Box 6 (PAX6) (AID 2282956)
# Conditions: HepG2 CIS-FACTORIAL PAX6 reporter transcription, RNA readout; actives raise or lower the signal
Activity calls are given as the source filed them. Rule for the calls: active = hit-call score of the fitted dose curve at least 0.9, where 1 is the maximum; inactive = score below 0.9.
Labels: active, inactive

[
  {
    "Compound": "COCC(C)OCC(C)O (stereo not drawn)",
    "Measurement Target": "Paired box protein Pax-6 (Homo sapiens)",
    "Category Label": "inactive"
  },
  {
    "Compound": "CC(=O)CC(C)(C)O",
    "Measurement Target": "Paired box protein Pax-6 (Homo sapiens)",
    "Category Label": "inactive"
  },
  {
    "Compound": "CC(C)(C)c1ccc(O)c(C(C)(C)C)c1",
    "Measurement Target": "Paired box protein Pax-6 (Homo sapiens)",
    "Category Label": "inactive"
  },
  {
    "Compound": "CCCCCCCCC(=O)O",
    "Measurement Target": "Paired box protein Pax-6 (Homo sapiens)",
    "Category Label": "inactive"
  },
  {
    "Compound": "COC(=O)CCCCC(=O)OC",
    "Measurement Target": "Paired box protein Pax-6 (Homo sapiens)",
    "Category Label": "inactive"
  },
  {
    "Compound": "CCc1ccc(CCOc2ccc(CC3SC(=O)NC3=O)cc2)nc1 (stereo not drawn)",
    "Measurement Target": "Paired box protein Pax-6 (Homo sapiens)",
    "Category Label": "inactive"
  },
  {
    "Compound": "C#C[C@]1(O)CC[C@H]2[C@@H]3CCC4=CC(=O)CC[C@@H]4[C@H]3CC[C@@]21C",
    "Measurement Target": "Paired box protein Pax-6 (Homo sapiens)",
    "Category Label": "inactive"
  },
  {
    "Compound": "CCN(CC)CCNc1ccc(CNC=O)c2sc3ccc(OC)cc3c(=O)c12",
    "Measurement Target": "Paired box protein Pax-6 (Homo sapiens)",
    "Category Label": "inactive"
  },
  {
    "Compound": "FC(F)(I)C(F)(F)C(F)(F)C(F)(F)C(F)(F)C(F)(F)I",
    "Measurement Target": "Paired box protein Pax-6 (Homo sapiens)",
    "Category Label": "active"
  },
  {
    "Compound": "CCCCCCCCCCCCc1ccccc1S(=O)(=O)O",
    "Measurement Target": "Paired box protein Pax-6 (Homo sapiens)",
    "Category Label": "inactive"
  },
  {
    "Compound": "CC(O)C(=O)O (stereo not drawn)",
    "Measurement Target": "Paired box protein Pax-6 (Homo sapiens)",
    "Category Label": "inactive"
  },
  {
    "Compound": "CCCCCCCCOC(=O)CCCCCCCCC(=O)OCCCCCCCC",
    "Measurement Target": "Paired box protein Pax-6 (Homo sapiens)",
    "Category Label": "inactive"
  },
  {
    "Compound": "CCCCCCCCCCCCCCCS(=O)(=O)Oc1ccccc1",
    "Measurement Target": "Paired box protein Pax-6 (Homo sapiens)",
    "Category Label": "inactive"
  }
]

====

# Assay Summary: Tanguay_ZF_120hpf_NC_legacy: (Legacy) Oregon State University Tanguay Lab 120 Hour Post-fertilization zebrafish Assay for Notochord and Tail Malformation (AID 2283656)
Results filed as inconclusive are left out. The source made the active and inactive calls. How the source made its calls: active means hit-call score of the fitted dose curve at least 0.9, where 1 is the maximum; inconclusive means response in the unintended direction; inactive means score below 0.9.

[
  {
    "Compound": "CC(=O)NC1(c2cccc(F)c2)CCN(CC[C@@]2(c3ccc(Cl)c(Cl)c3)CN(c3ccccc3)C(=O)CO2)CC1",
    "outcome": "inactive"
  },
  {
    "Compound": "CCCCOCCO",
    "outcome": "inactive"
  },
  {
    "Compound": "CC(C)(C)c1ccc(O)c(C(C)(C)C)c1",
    "outcome": "inactive"
  },
  {
    "Compound": "CC(C)(C)c1cccc(C(C)(C)C)c1O",
    "outcome": "inactive"
  },
  {
    "Compound": "C[C@@H]1C[C@H]2[C@@H]3CCC4=CC(=O)C=C[C@]4(C)[C@@]3(F)[C@@H](O)C[C@]2(C)[C@@]1(O)C(=O)COP(=O)(O)O",
    "outcome": "inactive"
  },
  {
    "Compound": "Cc1cc(C)c(O)c(C)c1",
    "outcome": "inactive"
  },
  {
    "Compound": "CCc1nn(C2CCCCC2)c2cc(C3(C#N)CCC(C(=O)O)CC3)ccc12 (configuration not stated)",
    "outcome": "inactive"
  },
  {
    "Compound": "COC(=O)CCCCC(=O)OC",
    "outcome": "inactive"
  },
  {
    "Compound": "c1ccc2c(c1)Cc1ccccc1-2",
    "outcome": "inactive"
  },
  {
    "Compound": "C#C[C@]1(O)CC[C@H]2[C@@H]3CCC4=CC(=O)CC[C@@H]4[C@H]3CC[C@@]21C",
    "outcome": "inactive"
  },
  {
    "Compound": "CCC(=C(c1ccc(O)cc1)c1ccc(OCCN(C)C)cc1)c1ccccc1",
    "outcome": "inactive"
  },
  {
    "Compound": "O=C(O)Cc1cc(I)c(Oc2cc(I)c(O)c(I)c2)c(I)c1",
    "outcome": "inactive"
  }
]

Measured values drawn from PubChem BioAssay (EPA / NIEHS) for this set.
